# Test system: UO-31 renal
# assay.summary: NCI-60 one-dose screen, 48 h (100 = growth as untreated, 0 = no growth, -100 = all killed)
# details: 10 µM unless noted
About 83,000 compounds went through this panel and 20% of them were active in at least one assay; those are over-represented in the sample as a whole.
readout.type: growth (%)

- Cc1ccc(Nc2cc(Cl)c([N+](=O)[O-])cc2[N+](=O)[O-])cc1: 77.7
- CC(C)N(C(=S)SSC(=S)N(C(C)C)C(C)C)C(C)C: 80.3
- CCCCCCCOc1cccc(/C=C2\N=C3SCCCN3C2=O)c1: 78.7
- Cc1ccccc1C1CC(=O)c2ccccc2C1C (stereo not drawn): 82.1
- CCCC(CCC)(C(N)=O)C(=O)O: 92.2
- COc1cc(/C=C/c2cc(/C=C/c3ccc(O)c(OC)c3)n(C(=O)c3ccccc3Br)n2)ccc1O: 23.9
- O=C(/C=C/c1ccccc1)c1c[nH]c2ccccc2c1=O: 4.93
- COc1cc(Cl)cc(-c2nn(C(=O)NCCN3CCOCC3)cc2-c2ccncc2)c1: 56.9

====

# Tested on: KM12 colon
# assay.summary: NCI-60 one-dose screen, 48 h (100 = growth as untreated, 0 = no growth, -100 = all killed)
# details: 10 µM unless noted
About 83,000 compounds went through this panel and 20% of them were active in at least one assay; those are over-represented in the sample as a whole.
# growth per entry
readout.type: growth (%)

* CN(C)c1nc(-c2cccs2)n2nc(-c3ccc(Cl)cc3)cc2n1 | 72.5
* O=C1/C(=C/c2ccccc2)SC(=Nc2ccccc2)N1Nc1ccccc1 | 3.45
* CS(=O)(=O)c1ccc(Cl)c([N+](=O)[O-])c1 | 75.3

====

# Test system: SK-MEL-2 melanoma
# assay.summary: NCI-60 one-dose screen, 48 h (100 = growth as untreated, 0 = no growth, -100 = all killed)
# details: 10 µM unless noted
About 83,000 compounds went through this panel and 20% of them were active in at least one assay; those are over-represented in the sample as a whole.
readout.type: growth (%)

- N/C(=N\OC(=O)c1ccccc1)C(C(=O)NOC(=O)c1ccccc1)C1CCCCC1 (stereo not drawn): 121
- Clc1cc2nc(-c3ccccc3)c(-c3ccccc3)nc2cc1Cl: 87.9
- CN1C(=O)C(C(=O)/C=C/c2ccccc2C(=O)O)C(=O)N(C)C1=O: 106

====

# Tested on: NCI-H226 lung
# assay.summary: NCI-60 one-dose screen, 48 h
# details: 10 µM unless noted
# Method: Growth inhibition of the NCI-H226 human Non-Small Cell Lung tumor cell line is measured as a screen for anti-cancer activity. Cells are grown in 96 well plates and exposed to the test compound for 48 hours. Compounds are tested at a single concentration, which is 10^-5 M for most compounds. The reported endpoint is percent growth (GI% or GIPRCNT), where numbers from 0 - 100% represent growth inhibition, and numbers from -100% - 0 represent cell death. […]
About 83,000 compounds went through this panel and 20% of them were active in at least one assay; those are over-represented in the sample as a whole. Activity calls are given as the source filed them. The calls were made as follows: active = growth percent below 10; inactive = the rest.
Labels: label 1 = active, label 0 = inactive

• CCCCn1cnc2c(SCc3ccc([N+](=O)[O-])cc3)nc(N)nc21 = label 0
• O=C(N/N=C/c1ccc([N+](=O)[O-])cc1)c1ccccc1Nc1ccnc(C(F)(F)F)c1 = label 0
• CCOC(=O)c1ccc2c(c1)nc(-c1ccc(Cl)cc1)n2-c1cc(C(C)(C)C)[nH]n1 = label 0
• COc1cc(/C=C2\CN(C(=O)OC(C)(C)C)C/C(=C\c3ccc(O)c(OC)c3)C2=O)ccc1O = label 0
• O/N=C/c1ccncc1 = label 0
• O=C(/C=C/c1ccccc1Br)c1cccc(OCCCCOc2cccc(C(=O)/C=C/c3ccccc3Br)c2)c1 = label 0
• CS(=O)(=O)c1ccc(Cl)c([N+](=O)[O-])c1 = label 0
• COc1cc(NCCC2CCCCN2)c2ncccc2c1OC (centres undefined) = label 0
• CC(C)c1ccc2c(c1)CCC1C2CCCC1(C)NCc1ccccc1 (centres undefined) = label 0
• CC(=O)Nc1ccc(/C=N/N2CCCCCC2)cc1 = label 0
• Nc1c(N)c2ccccc2c2ccccc12 = label 0
• C=CCOC(=O)C1=C(C)NC2=C(C(=O)CC(C)(C)C2)C1c1ccc(OC)cc1 (centres undefined) = label 0
• COc1cc(NC(=O)CSc2nc3ccc(Cl)cc3c(=O)n2-c2ccccc2)cc(OC)c1OC = label 0
• NS(=O)(=O)c1ccc(CCn2c(SCC(=O)N/N=C/c3cccnc3)nc3ccccc3c2=O)cc1 = label 0
• N/N=C(\C(=N\N)c1ccccc1)c1ccccc1 = label 0
• CN1C(=O)C(C(=O)/C=C/c2ccccc2C(=O)O)C(=O)N(C)C1=O = label 0
• NC(=S)N1N=C(c2ccc(Cl)cc2)CC1c1cc2ccccc2[nH]c1=O (centres undefined) = label 0
• COc1cc(-c2nn(C(=O)NCCN3CCN(C)CC3)cc2-c2ccncc2)ccc1Cl = label 0
• CC1CCCN(CCCCOc2ccc(-c3ccc(C#N)cc3)cc2)C1 (centres undefined) = label 0
• CC(=O)Oc1ccccc1C(=O)Nc1ncc([N+](=O)[O-])s1 = label 0
• c1csc(-c2cnc3nonc3n2)c1 = label 0
• Clc1nnc2c3ccccc3ccn12 = label 0
• CCC(=O)NC1=C(Cl)C(=O)C(NC(=O)CC)=C(Cl)C1=O = label 0
• O=C(/C=C/c1cn(-c2ccccc2)nc1-c1ccccc1)OCc1cn(-c2cccc([N+](=O)[O-])c2)nn1 = label 0
• COc1ccc(C(=O)OC2C(OC3C(O)COC(O[C@H]4C[C@H]5[C@@H]6CC=C7C[C@@H](O)CC[C@]7(C)[C@H]6CC[C@]5(C)[C@H]4[C@H](C)C(=O)CCC(C)C)C3OC(C)=O)OCC(O)C2O)cc1 (some centres undefined) = label 1
• CCOC(=O)c1cnc(SCC)nc1SC#N = label 0
• CCN(CC)CCCC(C)Nc1c(-c2ccccc2)cnc2cc(Cl)ccc12 (centres undefined) = label 0
• COc1ccc(CNc2c3ccccc3nc3ccccc23)cc1F = label 0
• CN1C2CCC1/C(=C\c1ccc(F)cc1)C(=O)/C2=C/c1ccc(F)cc1 = label 0
• C=C(C)[C@@H]1CC[C@]2(C(=O)NC(COC(=O)C(Cl)Cl)(COC(=O)C(Cl)Cl)COC(=O)C(Cl)Cl)CC[C@]3(C)[C@H](CC[C@@H]4[C@@]5(C)CC[C@H](OC(C)=O)C(C)(C)[C@@H]5CC[C@]43C)[C@@H]12 = label 0
• O=C1/C(=C/N2N=C(c3ccc(Cl)cc3)CC2c2ccccc2O)SC(=S)N1c1cccc(C(F)(F)F)c1 (centres undefined) = label 0
• CCN(CC)C(=O)O/N=C(/C)c1ccccc1 = label 0
• c1coc(CNc2c3ccccc3nc3ccccc23)c1 = label 0
• COc1ccc(-c2cc(-c3cc4ccccc4oc3=O)n(-c3ccccc3)n2)cc1 = label 0

====

# Tested on: HS 578T breast
# assay.summary: NCI-60 one-dose screen, 48 h (100 = growth as untreated, 0 = no growth, -100 = all killed)
# details: 10 µM unless noted
This is part of a sample that, as a whole, favours compounds with a hit. Of some 83,000 tested, about 20% had one in any assay.
readout.type: growth (%)

* CCCNCCC(C)=O | 89.9
* O=C(O)CSc1ccc(NCc2oc(CO)cc(=O)c2O)cc1 | 90.9
* CC(C)(C)[Si](C)(C)OC1[C@@H](O[Si](C)(C)C(C)(C)C)[C@@H](CNC(=O)NC(=O)NC(=O)CCl)O[C@H]1n1cnc2c(NC(=O)Nc3ccccc3)ncnc21 (stereo not given in full) | 74.3
* O=C(Nc1ccncc1)C(=O)c1cn(S(=O)(=O)c2cccc(Cl)c2F)c2ccccc12 | 84.7
* CCCCCCCC/C=C\CCCCCCCC(=O)OCCCCCC | 105
* COc1cc([N+](=O)[O-])cc(OC)c1OC | 107
* COc1cc(C2C(C#N)=C(N)Oc3cc4c(cc32)OCO4)cc2c1OCO2 (stereo not given) | 23
* Cc1c(C(N)=O)sc2ncn(CC(=O)NN=C3CCCCC3)c(=O)c12 | 108
* CCCCCCCCCCCC1=NC(C)(C)CN1CCO | 59.3
* CNC(=O)OC1C(O[C@H]2C[C@H]3[C@@H]4CC=C5C[C@@H](O)CC[C@]5(C)[C@H]4CC[C@]3(C)[C@H]2[C@H](C)C(=O)CCC(C)C)OCC(O)C1OC1OCC(O)C(O)C1OC(=O)c1ccc(OC)cc1 (stereo not given in full) | -5.93

====

# Test system: HS 578T breast
# assay.summary: NCI-60 one-dose screen, 48 h
# details: 10 µM unless noted
The panel holds about 83,000 compounds, 20% with a hit somewhere; the sample as a whole holds those more often. The source made the active and inactive calls. How the source made its calls: active means growth percent below 10; inactive means the rest.
Outcomes: TRUE for active, FALSE for inactive

* CNC1=C([N+](=O)[O-])C(c2ccccc2O)C(C#N)=C(c2cccs2)O1 (stereo not drawn) | FALSE
* CC(C)CCC(=O)[C@@H](C)[C@H]1[C@@H](OC2OCC(O)C(O)C2NS(C)(=O)=O)C[C@H]2[C@@H]3CC=C4C[C@@H](O)CC[C@]4(C)[C@H]3CC[C@]12C (stereo partly drawn) | TRUE
* COc1cc(/C=C2\CN(C(=O)OC(C)(C)C)C/C(=C\c3ccc(O)c(OC)c3)C2=O)ccc1O | FALSE
* COc1ccc(Oc2nc(Nc3ccc(N4CCOCC4)cc3)ncc2NC(=O)Nc2cccc(OC)c2)cc1 | FALSE
* Nc1c(C(=O)Nc2cccc(Cl)c2)sc2nc3c(cc12)C(=O)CCC3 | TRUE
* COc1ccc(NC(=O)Cn2c(=O)sc3c(-c4ccc(Cl)cc4)cc(-c4ccc(Cl)cc4)nc32)cc1 | FALSE
* CCn1c(=O)c(C(=O)NCCCO)c(O)c2ccccc21 | FALSE
* O=C1OCC2=C1C(c1ccccc1)c1cc3c(cc1N2CCO)CCC3 (stereo not drawn) | TRUE
* CCCCc1nc(Cl)c(C2CC(c3ccc(S(N)(=O)=O)cc3)=NN2c2ccc(C#N)cc2)[nH]1 (stereo not drawn) | FALSE
* COc1ccc2[nH]cc(C3(c4c[nH]c5ccc(OC)cc45)C(=O)Nc4ccc(Cl)cc43)c2c1 | FALSE
* CC(C)[C@@]12C[C@@H](OC(=O)[C@H]3CO3)[C@@](C)(O1)[C@@H]1CC[C@@H](C)[C@H]1[C@@H]2OC(=O)/C=C/c1ccccc1 | TRUE
* CN(C)c1nc(-c2cccs2)n2nc(-c3ccc(Cl)cc3)cc2n1 | TRUE
* O=C(CC(=O)C(F)(F)C(F)(F)C(F)(F)F)c1cc2ccccc2o1 | FALSE
